Known tissue uptake at 6 h of a selection of compounds
assay: Biodistribution in Daudi xenograft bearing mice; type: in vivo, mouse; conditions: female, CB-17 SCID, mouse, kidney, iv, total radioactivity, 6h p.i., i.v.; means ± SD, n=4-5; read-out: Biodistribution kidney
Where a SMILES comes first, the peptide text is derived from it. Side-chain parts run from the residue outwards. [ ]: non-standard residue; d: D form. The star is where a group is joined. DOTA = O=C(O)CN1CCN(CC(=O)O)CCN(CC(=O)*)CCN(CC(=O)O)CC1; dTyr(3-I) = N[C@H](Cc1ccc(O)c(I)c1)C(=O)O; 2Nal = N[C@@H](Cc1ccc2ccccc2c1)C(=O)O; dNMeOrn = CN[C@H](CCCN)C(=O)O; 4Abz = Nc1ccc(C(=O)O)cc1
Give a bare numeral; the unit %ID/g is implied.

| compound | tissue uptake at 6 h, %ID/g |
| --- | --- |
| C[C@@H](NC(=O)[C@@H](CCCNC(=N)N)NC(=O)CN1CCN(CC(=O)O)CCN(CC(=O)O)CCN(CC(=O)O)CC1)C(=O)Nc1ccc(C(=O)NCCC[C@@H]2C(=O)N[C@@H](CCCNC(=N)N)C(=O)N[C@@H](Cc3ccc4ccccc4c3)C(=O)NCC(=O)N[C@H](Cc3ccc(O)c(I)c3)C(=O)N2C)cc1 [[^177Lu]DOTA-r-a-ABA-iodoCPCR4, metal not drawn] (cyclo([2Nal]G[dTyr(3-I)][dNMeOrn]([4Abz-dA-dR-DOTA])R)) | 3.2 |

Prompt line: Dear colleague, I am looking for the recorded tissue uptake at 6 h of the following compound: C[C@@H](NC(=O)[C@@H](CCCNC(=N)N)NC(=O)CN1CCN(CC(=O)O)CCN(CC(=O)O)CCN(CC(=O)O)CC1)C(=O)Nc1ccc(C(=O)NCCC[C@@H]2C(=O)N[C@@H](CCCNC(=N)N)C(=O)N[C@@H](Cc3ccc4ccccc4c3)C(=O)NCC(=O)N[C@H](Cc3ccc(O)cc3)C(=O)N2C)cc1 [[^177Lu]DOTA-r-a-ABA-CPCR4, metal not drawn] (cyclo([2Nal]G[dY][dNMeOrn]([4Abz-dA-dR-DOTA])R))
Response line: 7.1
